biological target: mouse class II IE^k, purified from CH12 cells (mouse); experiment: 125I-peptide inhibition, purified class II
Non-standard residues stand in square brackets, D forms with d. No end group written: not given here. Cha = N[C@@H](CC1CCCCC1)C(=O)O
Observable: pIC50
# log scale: pIC50 equals minus log10 of the concentration in mol/L

Recorded results for 4 binders are shown here.
Fill in: pIC50 of ISQAVHAAHAEINE (modifications not checked) [Ova 323-336] is ___
6.15

Fill in: pIC50 of AKFVAAWTLKAAA (modifications not checked) [1024.03] is ___
5.46

Fill in: pIC50 of [dA]A[Cha]IAAATLKAA[dA] [906.11] is ___
7.85

Fill in: pIC50 of [dA]A[Cha]VAAATLKAA[dA] [906.09] is ___
7.96

Moving on to the next binder.
Fill in: pIC50 of [dA]A[Cha]AAAATLKAA[dA] [760.57] is ___
7.11
